experiment: chemical genetic growth profiling, strain panel (AID 1159580);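 further: tested at 20 µM; growth read once vehicle control cultures reached saturation at 30 °C; 1 = growth at the plate median or of vehicle wells; lower values mean less growth of the strain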; conditions: S. cerevisiae deletion strains, growth OD, locus YPR119W, strain clb2, stronger effect = lower value
The campaign covered roughly 5,500 compounds. About 2,000 (36%) were called active. Not shown: some 18% with an inconclusive outcome. The list shows a part of the results.
PARAMETER: normalized growth
Answers are plain numbers.

> print(dat)
                                   compound          parameter  measured.number
1              Cn1c(=O)[nH]c(=O)c2[nH]cnc21  normalized growth            0.974
2  CC1=C(C(=O)O)N2C(=O)[C@@H](NC(=O)[C@H](N)C3=CCC=CC3)C2SC1 (stereo partly specified)  normalized growth            0.995
3  Nc1ncnc2c1ncn2[C@@H]1O[C@H](CO)[C@@H](O)[C@@H]1O  normalized growth             1.03
4     O=c1c(-c2ccc3c(c2)OCO3)coc2cc(O)ccc12  normalized growth            0.985
5  CC1(C)C[C@@H]2C(=O)CC[C@H]3O[C@]3(C)CC[C@H]21  normalized growth            0.992

Batch lookup, normalized growth per entry.
1. CNC(=O)CSP(=S)(OC)OC
2. CC(C)=CCc1c(O)cc2occ(-c3ccc4c(c3)OCO4)c(=O)c2c1O

Reply text:
1.02
1.02

====

experiment: chemical genetic growth profiling, strain panel (AID 1159580);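 further: tested at 20 µM; growth read once vehicle control cultures reached saturation at 30 °C; 1 = growth at the plate median or of vehicle wells; lower values mean less growth of the strain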; conditions: S. cerevisiae deletion strains, growth OD, locus YGL253W, strain hxk2, stronger effect = lower value
Screen size: about 5,500 compounds; about 2,000 (36%) were called active. Inconclusive results (about 18%) are left out. The list shows a part of the results.
Exercise: state measured normalized growth for each of the compounds provided.
Numbers only.

List the reported normalized growth of each compound below.
1. C[C@]12CCC3c4ccc(O)cc4CCC3C1CC[C@@H]2OC(=O)CCC1CCCC1 (some centres undefined)
2. c1coc(CNc2ncnc3nc[nH]c23)c1
3. CCC(=O)O[C@H]1CCC2C3CCc4cc(O)ccc4C3CC[C@@]21C (some centres undefined)
4. CCCCC/C=C\C/C=C\C/C=C\C/C=C\CCCC(=O)O
5. O=c1[nH]cnc2nc[nH]c12

Reply text:
1.01
0.995
1
0.974
1.02

Working through the 2 compounds below one at a time, give normalized growth for each.
1. Cn1cnc([N+](=O)[O-])c1Sc1ncnc2nc[nH]c12
2. C[C@]12CCC3C(CC[C@H]4CC(=O)CC[C@]34C)C1CCC2=O (some centres undefined)

Reply text:
1.03
0.92

Look up normalized growth for the entries below, preserving their order.
1. CC(=O)c1ccc2c(c1)N(CCCN(C)C)c1ccccc1S2
2. CC(=O)O[C@@H]1CC2C(C)(C)[C@H](O)C[C@H](O)[C@]2(C)C2CC[C@@]3(C)C(=CC(=O)O[C@H]3c3ccoc3)[C@@]21C (some centres undefined)
3. C=C(C)c1cc2cc(C(C)=O)c(O)cc2o1
4. Nc1ncnc2nc[nH]c12
5. CC(=O)Oc1ccc2c(c1)CCC1C2CCC2(C)C1CC(OC(C)=O)C2OC(C)=O (centres undefined)

Reply text:
[0.993, 0.941, 0.977, 0.987, 0.997]

====

assay: chemical genetic growth profiling, strain panel (AID 1159580);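 further: tested at 20 µM; growth read once vehicle control cultures reached saturation at 30 °C; 1 = growth at the plate median or of vehicle wells; lower values mean less growth of the strain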; conditions: S. cerevisiae deletion strains, growth OD, locus YGR252W, strain gcn5, stronger effect = lower value
Screen size: about 5,500 compounds; about 2,000 (36%) were called active. Not shown: some 18% with an inconclusive outcome. The list shows a part of the results.
Field: normalized growth. Provide a value for each of the compounds that follow.
Answers are plain numbers.

> print(dat)
                                   compound  measured.number
1  CC(C(=O)O)c1ccc(N2Cc3ccccc3C2=O)cc1 (configuration not stated)            0.938
2  CC(C)CCCC(C)C1CCC2C3CCC4CC(=O)CCC4(C)C3CCC12C (configuration not stated)                1
3  C[C@]12CCC3C(CC[C@H]4C[C@@H](Cl)CC[C@]34C)C1CCC2=O (some centres not stated)            0.993

Dear reader, for each entry below, please note its normalized growth.
1. Cn1c(=O)[nH]c(=O)c2[nH]cnc21
2. C[C@]12CCC3C(CC[C@H]4CC(=O)CC[C@]34C)C1CCC2=O (some centres not stated)

Reply text:
[1.06, 0.692]

# return normalized growth for each item in the list
1. CC1=C2[C@](C)(C=CC1=O)C[C@H](O)[C@H]1[C@H](C)C(=O)O[C@]21C
2. Cc1ncc([N+](=O)[O-])n1CCO

Reply text:
1: 1.07; 2: 0.904
